Tested on: SJRH30;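 note: growth inhibition of human SJRH30 cells, read out with a cell viability assay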
Experiment: cells
Type: functional, cell-based, Homo sapiens
Conditions: Homo sapiens, SJRH30
Description: SANGER: Inhibition of human SJRH30 cell growth in a cell viability assay.
Counter-ions that a name gives are not always drawn.
IC50 for assorted compounds
property: IC50 (nM)

>  <compound>
CCN(CC)CCCCNc1ncc2cc(-c3cc(OC)cc(OC)c3)c(NC(=O)NC(C)(C)C)nc2n1

>  <comparison operator>
>

>  <value reported>
2000

$$$$
>  <compound>
Oc1ccc2ccccc2c1SSc1c(O)ccc2ccccc12

>  <comparison operator>
>

>  <value reported>
32000

$$$$
>  <compound>
COC1=CC(c2cc3ccccc3[nH]2)=N/C1=C\c1[nH]c(C)cc1C [OBATOCLAX MESYLATE]

>  <comparison operator>
=

>  <value reported>
321

$$$$
>  <compound>
Cn1cnc2c(F)c(Nc3ccc(Br)cc3Cl)c(C(=O)NOCCO)cc21

>  <comparison operator>
>

>  <value reported>
4000

$$$$
>  <compound>
COc1cccc2c1C(=O)c1c(O)c3c(c(O)c1C2=O)C[C@@](O)(C(=O)CO)C[C@@H]3O[C@H]1C[C@H](N)[C@H](O)[C@H](C)O1

>  <comparison operator>
=

>  <value reported>
173

$$$$

Attribution: ChEMBL document CHEMBL1201861
